For human thrombin (Homo sapiens, UniProt P00734), measured pKi is reported for the entries below.
Scale for pKi: -log10 of concentration given in mol/L; no unit attached.

The cases that follow already have their pKi on record.
Ask: Any idea what pKi was measured for N=C(N)N1CCC[C@@H](CNC(=O)C[C@H](NS(=O)(=O)c2ccc3ccccc3c2)C(=O)N(CC(=O)O)Cc2ccccc2Cl)C1 [Example 26b] ?
Reply: 9.60

Ask: Repeat for the following compound: N=C(N)N1CCC[C@@H](CNC(=O)C[C@H](NS(=O)(=O)c2ccc3ccccc3c2)C(=O)N(CCC(=O)O)C2CC2)C1
Reply: 9.52

Ask: Please answer likewise for N=C(N)N1CCC[C@@H](CNC(=O)C[C@H](NS(=O)(=O)c2ccc(C(F)(F)F)cc2)C(=O)N(CC(=O)O)C2CC2)C1 [Example 15a]
Reply: 9.07

Continuing:
Ask: Entry CCCCN(CCNS(=O)(=O)O)C(=O)[C@H](CC(=O)NC[C@@H]1CCCN(C(=N)N)C1)NS(=O)(=O)c1ccc2ccccc2c1 [Example 31c] : reported pKi = ?
Reply: 8.66

The measured values listed here are drawn from patent US5405854A.
